Test system: Rattus norvegicus
Experiment: Unbound volume of distribution in Wistar Han rat at 0.5 mg/kg, iv LC-MS/MS method
Assay type: ADME, organism-based
Settings: in vivo
Assay metric: Vdu (L/kg)

Some entries whose results are on file:
Smiles structure: CS(=O)(=O)c1ccc(COC[C@@H]2C[C@@H]2C2CCN(c3ncc(Cl)cn3)CC2)nc1
Vdu, L/kg: 81
//
Smiles structure: COCc1cnc(N2CCC([C@H]3C[C@H]3COCc3ccc(S(C)(=O)=O)cc3F)CC2)nc1
Vdu, L/kg: 54

I. CCS(=O)(=O)c1ccc(OCC[C@@H]2C[C@@H]2C2CCN(c3nc(C(C)C)no3)CC2)c(F)c1
II. CCS(=O)(=O)c1ccc(COC[C@@H]2C[C@@H]2C2CCN(c3nc(C(C)C)no3)CC2)c(F)c1
(Q) # compare Vdu for I vs II ; return the one with the smaller value Mark your answer with the label of the selected entry.
(A) II

* * *

Experiment: Intrinsic clearance in dog liver microsomes
Format: ADME, Canis lupus familiaris
Conditions: read-out: CLH
Assay metric: CLint scaled (mL/min/kg)
State just the number; it will be interpreted in mL/min/kg.

(Q) Item COCc1cnc(N2CCC([C@H]3C[C@H]3COCc3ccc(S(C)(=O)=O)cc3F)CC2)nc1 : provide CLint scaled
(A) 60

* * *

Assay: Drug level in mouse blood at 10 mg/kg after 90 mins
Format: ADME, organism-based
Conditions: whole blood, read-out: Drug uptake
Assay metric: concentration at 1.5 h (nM)
Quick reminder: number only, in nM, skip the unit.

(Q) Answer with the recorded concentration at 1.5 h of COCc1cnc(N2CCC([C@H]3C[C@H]3COCc3ccc(S(C)(=O)=O)cc3F)CC2)nc1 only.
(A) 622

* * *

Biological target: Glucose-dependent insulinotropic receptor (Homo sapiens)
Sequence (Q8TDV5 whole entry): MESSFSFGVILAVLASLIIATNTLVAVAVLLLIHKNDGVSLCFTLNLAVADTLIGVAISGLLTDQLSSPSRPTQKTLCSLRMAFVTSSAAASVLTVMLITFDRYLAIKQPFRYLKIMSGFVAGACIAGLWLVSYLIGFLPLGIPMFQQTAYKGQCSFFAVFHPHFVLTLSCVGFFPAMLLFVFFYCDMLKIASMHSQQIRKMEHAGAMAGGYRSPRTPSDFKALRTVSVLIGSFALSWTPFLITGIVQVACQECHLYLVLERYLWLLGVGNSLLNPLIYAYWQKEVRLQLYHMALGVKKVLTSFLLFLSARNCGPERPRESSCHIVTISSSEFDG
Assay: Agonist activity at human GPR119 expressed in CHO cells by cAMP assay
Assay metric: EC50 (nM)

Smiles structure: CCS(=O)(=O)c1ccc(OCC[C@@H]2C[C@@H]2C2CCN(c3nc(C(C)C)no3)CC2)c(F)c1
Study target: Glucose-dependent insulinotropic receptor (Homo sapiens)
EC50 (nM): 1.7
//
Smiles structure: CC1(OC(=O)N2CCC([C@H]3C[C@H]3COCc3ccc(-n4cnnn4)cc3F)CC2)CC1
Study target: Glucose-dependent insulinotropic receptor (Homo sapiens)
EC50 (nM): 4.8
//
Smiles structure: COCc1cnc(N2CCC([C@H]3C[C@H]3COCc3cc(F)c(S(C)(=O)=O)c(F)c3)CC2)nc1
Study target: Glucose-dependent insulinotropic receptor (Homo sapiens)
EC50 (nM): 4.5
//
Smiles structure: CCOc1cnc(N2CCC([C@H]3C[C@H]3COCc3ccc(S(C)(=O)=O)c(F)c3)CC2)nc1
Study target: Glucose-dependent insulinotropic receptor (Homo sapiens)
EC50 (nM): 1.7
//
Smiles structure: CCc1cnc(N2CCC([C@H]3C[C@H]3COCc3ccc(S(C)(=O)=O)cn3)CC2)nc1
Study target: Glucose-dependent insulinotropic receptor (Homo sapiens)
EC50 (nM): 1.5
//
Smiles structure: CS(=O)(=O)c1ccc(COC[C@@H]2C[C@@H]2C2CCN(c3ncc(F)cn3)CC2)cc1F
Study target: Glucose-dependent insulinotropic receptor (Homo sapiens)
EC50 (nM): 2.4
//
Smiles structure: CCS(=O)(=O)c1ccc(COC[C@@H]2C[C@@H]2C2CCN(c3nc(C(C)C)no3)CC2)c(F)c1
Study target: Glucose-dependent insulinotropic receptor (Homo sapiens)
EC50 (nM): 0.8

A. CCS(=O)(=O)c1ccc(COC[C@@H]2C[C@@H]2C2CCN(c3ncc(COC)cn3)CC2)c(F)c1
B. COCc1cnc(N2CCC([C@H]3C[C@H]3COCc3ccc(-n4cnnn4)c(F)c3)CC2)nc1
C. CCc1cnc(N2CCC([C@H]3C[C@H]3COCc3ccc(S(C)(=O)=O)c(F)c3)CC2)nc1
D. CC(C)c1noc(N2CCC([C@H]3C[C@H]3COCc3ccc(-n4cnnn4)cc3F)CC2)n1
E. COc1cnc(N2CCC([C@H]3C[C@H]3COCc3ccc(S(C)(=O)=O)cc3F)CC2)nc1
(Q) hey, can you rank those molecules up there by EC50? biggest number first please Rank them, then answer with their labels in that order.
(A) A, E, C, D, B
